Before we begin, note that these pIC50 values for BTK (Homo sapiens, UniProt Q06187) originate from several publications.
pIC50: −log10 of the molar value.
Reported Endpoint: pIC50

| Molecule | Test Target | pIC50 |
| --- | --- | --- |
| C#CC(=O)N1CC2CC1C(n1nc(-c3ccc(C(=O)Nc4ccccn4)cc3)c3c(N)ncnc31)C2 (stereo not drawn) | BTK (Homo sapiens, UniProt Q06187) | 8.55 |
| C=CC(=O)N1CCCC(n2nc(/C=C/c3ccccc3Cl)c3c(N)ncnc32)C1 (stereo not drawn) | BTK (Homo sapiens, UniProt Q06187) | 7.78 |

(I) C=CC(=O)N1CC[C@]2(C1)C[C@H](n1c(NC(=O)c3cnco3)nc3cc(CN[C@@H](C)C(C)(C)C)ccc31)C2
(II) C=CC(=O)N1CC2CC1C(n1nc(-c3ccc(C(=O)Nc4cc(C#N)ccn4)cc3)c3c(N)ncnc31)C2 (stereo not drawn)
When I and II are compared, which has the higher number for pIC50? Your answer should be the label attached to the chosen record. II

(I) C=CC(=O)N1CC(Nc2cncc(-c3cnc(Oc4cccc(Cl)c4)nc3)c2)C1
(II) C=CC(=O)N1C[C@@H]2C[C@@H]1[C@@H](n1nc(-c3ccc(C(=O)Nc4ccccn4)cc3F)c3c(N)ncnc31)C2
When I and II are compared, which has the higher number for pIC50? Your answer should be the label attached to the chosen record. II
(II: 8.80, I: 8.01)
